Data provenance is ChEMBL document CHEMBL3102831.

System: HepG2
Experiment: Cytotoxicity against human HepG2 cells after 48 hrs by MTT assay
Format: functional, cell-based
Details: HepG2, 48 h
PARAMETER: IC50 (µM)
One number for each entry, in µM.

List reported IC50 for each of these molecules:
1. CCOP(=O)(OCC)C(NC(=O)c1cc(O)c2c(c1)C(=O)c1cccc(O)c1C2=O)c1ccccc1OC (stereo not given)
2. CCOP(=O)(OCC)C(NC(=O)c1cc(O)c2c(c1)C(=O)c1cccc(O)c1C2=O)c1ccc(C)cc1 (stereo not given)
3. CCOP(=O)(OCC)C(NC(=O)c1cc(O)c2c(c1)C(=O)c1cccc(O)c1C2=O)c1ccc(F)cc1 (stereo not given)
4. CCOP(=O)(OCC)C(NC(=O)c1cc(O)c2c(c1)C(=O)c1cccc(O)c1C2=O)c1cccc(F)c1 (stereo not given)

*A*
[30, 77.9, 59.4, 56.8]
